Test system: TO-3-N3 (biotin conjugate)
test method notes: pull-down binding Z-score (relative to library population); higher = stronger binding
condition notes: RNA library: Library-2
readout: pull-down binding Z-score
Note: the reply should be a number with no unit written.

INSERT INTO assay_data (residues, readout, numeric_result) VALUES
  ('UGAGUGAUGACUCAGGCGACUCCA [hsa-mir-338]', 'pull-down binding Z-score', -0.345);

(Q) If you can, please state the reported pull-down binding Z-score value of CCUCGUACAAAAUUUUCAAGAUCGAAAAGGGG [IAV_invivo_NA_6_Motif_10+IAV_invivo_NA_6_Motif_10] .
(A) -0.278

(Q) If you can, please state the reported pull-down binding Z-score value of UGGUUUCACUA [hsa-mir-3713] .
(A) 0.624

(Q) If you can, please state the reported pull-down binding Z-score value of GUCUUACACCGUGCGGCACAGGCACUAGUACUGAUGUCGUAUACAGGGCUUUUGAC [DMSMaPseq_invitro_SARS-CoV-2_Motif_242] .
(A) -0.0912

(Q) If you can, please state the reported pull-down binding Z-score value of `CUUGAACAAUGGAACCUAGUAAUAGGUUUCCUAUUCCUUACAUGGAUUUGUCUUCUACAAUUUGCCUAUGCCAACAGGAAUAGGUUUUUGUAUAUAAUUAAG` .
(A) -0.828

====

System: TO-N3 (biotin conjugate)
test method notes: pull-down binding Z-score (relative to library population); higher = stronger binding
condition notes: RNA library: Library-2
pull-down binding Z-score listing for selected sequences.

Worked examples, 5 sequences total:
INSERT INTO measurements (residues, readout, result) VALUES
  ('GUGUACCUCAUGUGUGUACAC [hsa-mir-5692a-2_5692a-1]', 'pull-down binding Z-score', -0.563),
  ('AGUUGAACACUUGUUGGGACAACCU [hsa-mir-4421]', 'pull-down binding Z-score', 0.971),
  ('GGUGUCGAACUCAUGGCUGCCACC [hsa-mir-6782]', 'pull-down binding Z-score', -0.065),
  ('GGCGCACAGCAGACCCUGCAAUCAUGCC [hsa-mir-3164]', 'pull-down binding Z-score', 1.03),
  ('GCUCAGGAUGGUAAUGCUGCUAUCAGC', 'pull-down binding Z-score', 0.203);

(Q) Recall the recorded pull-down binding Z-score for `GCUAGUCUUAAUGGAGUCACAUUAAUUGGAGAAGC` with TO-N3 (biotin conjugate) and state it.
(A) 0.474

(Q) Recall the recorded pull-down binding Z-score for UGGGCACACUUUCUUAUGAACAAUUUAAGAAAGGUGUUCA [SHAPE_invivo_SARS-CoV-2_Motif_116] with TO-N3 (biotin conjugate) and state it.
(A) -0.52

(Q) Recall the recorded pull-down binding Z-score for GUCUGUCACUGGGGAAGUC [hsa-mir-4682] with TO-N3 (biotin conjugate) and state it.
(A) 1.19

(Q) Recall the recorded pull-down binding Z-score for CCAUGCUGUUUAAGCCUAGCAUAG [hsa-mir-4423] with TO-N3 (biotin conjugate) and state it.
(A) 0.208

(Q) Recall the recorded pull-down binding Z-score for CCGGGUGCCCACAAGACUGUG [hsa-mir-3138] with TO-N3 (biotin conjugate) and state it.
(A) 1.01

(Q) Recall the recorded pull-down binding Z-score for UGGGUUGAACUGUGUGGACAAGCUCA [hsa-mir-181b-1] with TO-N3 (biotin conjugate) and state it.
(A) 0.366

====

Tested on: TO-N3 (biotin conjugate)
test method notes: pull-down binding Z-score (relative to library population); higher = stronger binding
condition notes: RNA library: Library-2
readout: pull-down binding Z-score
Note: the reply should be a number with no unit written.

INSERT INTO results (residues, numeric_result) VALUES
  ('GUCUUACACCGUGCGGCACAGGCACUAGUACUGAUGUCGUAUACAGGGCUUUUGAC [DMSMaPseq_invitro_SARS-CoV-2_Motif_242]', 0.173),
  ('GUUCUUGAGUGUAAUGUGAAAACUACCGAAGUUGUAGGAGACAUUAUACUUAAACCAGC', 0.111),
  ('GCACUGACUUGCUUUAGCACUCAAUUUGCUUUUGCUUGUCCUGACGGCGUAAAACACGUCUAUCAGUUACGUGC', 0.281),
  ('CUAACAAUCUAGUUGUAAUGGCCUACAUUACAGGUGGUGUUGUUCAG [SHAPE_invivo_SARS-CoV-2_Motif_39]', -0.379),
  ('CCAAAUUUCAUGCG [hsa-mir-4454]', 0.0342),
  ('UUUCUGAAUUUGUGAGA [hsa-mir-4463]', -0.277),
  ('UUUGCCGUUAAAAGUAAUGGCA [hsa-mir-548a-2]', -0.368),
  ('GCGCUGCCAGAAACUGGCGGGAGCGC [bulge-GGG]', 0.688);

Now examine the next entry.
(Q) If you can, please state the reported pull-down binding Z-score value of GUGCCCAAAAUACGUCAGGAGUGC [IAV_invivo_HA_4_Motif_13+IAV_invivo_HA_4_Motif_13] .
(A) 0.0361

====

System: TO-3-N3-2 (biotin conjugate)
test method notes: pull-down binding Z-score (relative to library population); higher = stronger binding
condition notes: RNA library: Library-2
readout: pull-down binding Z-score
Note: the reply should be a number with no unit written.

Worked examples, 3 sequences total:
INSERT INTO results (residues, system, numeric_result) VALUES
  ('UAGGUUUUUCUACAGGUGUUAACCUA [SHAPE_invitro_SARS-CoV-2_Motif_336]', 'TO-3-N3-2 (biotin conjugate)', -0.426),
  ('CUUUGGUGGCUAUGGUUGACUGGGCCACUCAGAG [hsa-mir-4468]', 'TO-3-N3-2 (biotin conjugate)', -0.332),
  ('CUGAGGACUGAGGCUCACCUUG [hsa-mir-6772]', 'TO-3-N3-2 (biotin conjugate)', 0.0747);

(Q) If you can, please state the reported pull-down binding Z-score value of GGCAACUAGCACUCUCCAAGGGUGUUCACUUUGUUUGCAACUUGCUGUUGUUGUUUGUAACAGUUUACUCACACCUUUUGCUCGUUGCU [SHAPE_invitro_SARS-CoV-2_Motif_465] .
(A) -0.205

====

pull-down binding Z-score listing for selected sequences.
Tested on: TO-3-N3 (biotin conjugate)
test method notes: pull-down binding Z-score (relative to library population); higher = stronger binding
condition notes: RNA library: Library-2
Note: the reply should be a number with no unit written.

Worked examples, 5 sequences total:
INSERT INTO assay_data (residues, numeric_result) VALUES
  ('GGAUGGCCAGGGAAGUAUGCCGGGCCUUGGCAUUUC [hsa-mir-7159]', 0.218),
  ('GACACUUUCACUAUAUAUAGUGGC [hsa-mir-3156-3]', -0.049),
  ('GGGUAGUGGUGAGCAUUGACC [IAV_invivo_PB2_1_Motif_22+IAV_invivo_PB2_1_Motif_22]', 1.17),
  ('GGUGGGUGCC [hsa-mir-1268b]', -0.142),
  ('GCCCGCUGUGUUCACUCGGGC [hsa-mir-602]', -0.169);

(Q) Recall the recorded pull-down binding Z-score for `GGGAUUAUCCU` with TO-3-N3 (biotin conjugate) and state it.
(A) -0.811

(Q) Recall the recorded pull-down binding Z-score for GUCGUUGACAGGACACGAGUAACUCGUCUAUCUUCUGCAGGCUGC [SARS-CoV-2-Conserved-Structured-34_Interval-80-197_Motif_3] with TO-3-N3 (biotin conjugate) and state it.
(A) -0.455

(Q) Recall the recorded pull-down binding Z-score for UGGCGACACUCGCGCCAGCUCCCGGGACGGCUGGGCUCGGGCUGGUCGCCGA [hsa-mir-7845] with TO-3-N3 (biotin conjugate) and state it.
(A) 0.0309

(Q) Recall the recorded pull-down binding Z-score for `GCUGUAGUGUUACUAAUCCUUAUGACAGC` with TO-3-N3 (biotin conjugate) and state it.
(A) -0.113

(Q) Recall the recorded pull-down binding Z-score for `AAAAAUCUUAGGGAAUUUGUGUUUAAGAAUAUUGAUGGUUAUUUUAAAAUAUAUUCUAAGCACACGCCUAUUAAUUUAGUGCGUGAUCUCCCUCAGGGUUUUU` with TO-3-N3 (biotin conjugate) and state it.
(A) -0.855

====

System: TO-N3 (biotin conjugate)
test method notes: pull-down binding Z-score (relative to library population); higher = stronger binding
condition notes: RNA library: Library-2
readout: pull-down binding Z-score

Worked examples, 5 sequences total:
INSERT INTO measurements (residues, readout, result) VALUES
  ('AACCAGUUAACUGGUU [SHAPE_invivo_SARS-CoV-2_Motif_126]', 'pull-down binding Z-score', 0.00533),
  ('UGAGUGGCAUAAUCAGAGUACAAUUUGAGUCAUGCCCAUACAUCA [hsa-mir-23c]', 'pull-down binding Z-score', -0.271),
  ('CUGCUCUCCCUGGCAGCAAG [hsa-mir-7109]', 'pull-down binding Z-score', 0.283),
  ('AGUGAAAUAAAGGUCCAUCUCCUGCCUAUUUAUUACUUUGCU [hsa-mir-1243]', 'pull-down binding Z-score', -0.718),
  ('CCCAUAUGAACAUACAAUGCUAUGGA [hsa-mir-1-2]', 'pull-down binding Z-score', -0.569);

(Q) If you can, please state the reported pull-down binding Z-score value of CAAUGUGUGAUAUCAGACAACUACUAUUUGUAGUUGAAGUUGUUGAUAAGUACUUUG [DMSMaPseq_invitro_SARS-CoV-2_Motif_268] .
(A) 0.105

(Q) If you can, please state the reported pull-down binding Z-score value of CAUGUGGUGGAACGAUGGAAACGGAACAUG [hsa-mir-218-2] .
(A) 0.162

(Q) If you can, please state the reported pull-down binding Z-score value of AGAAGGCCUAUGGUGAUUUGCAUUCUU [hsa-mir-6875] .
(A) -0.072

(Q) If you can, please state the reported pull-down binding Z-score value of CUUUGCUACUGCUC [hsa-mir-6072] .
(A) -0.000442

(Q) If you can, please state the reported pull-down binding Z-score value of UGAGUUUA [hsa-mir-451a] .
(A) -0.22

(Q) If you can, please state the reported pull-down binding Z-score value of AGAGAUGAGCAUAAAGUUUUU [hsa-mir-6086] .
(A) -0.104

(Q) If you can, please state the reported pull-down binding Z-score value of GCUCACCGUGCCCAGUGAGC [IAV_invivo_M1_M2_7_Motif_5+IAV_invivo_M1_M2_7_Motif_5] .
(A) 0.0761
